# credit: the supplement of paper PMC6555819

Parameter PBM binding z-score: see the listing below.
- Test system: PXR:RXRa (NR concentration 270 nM, RXRa partner concentration 90 nM)
- testMethodNotes: PBM binding z-score (relative to random genomic background probes); higher = stronger binding; sequences stand for … in GC…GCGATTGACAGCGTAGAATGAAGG
metric: PBM binding z-score

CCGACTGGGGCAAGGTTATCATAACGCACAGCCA	0.253
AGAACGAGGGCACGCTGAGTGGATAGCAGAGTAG	0.143
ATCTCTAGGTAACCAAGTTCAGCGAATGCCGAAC	2.02
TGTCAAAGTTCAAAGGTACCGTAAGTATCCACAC	5.17
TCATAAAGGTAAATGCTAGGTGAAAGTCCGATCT	0.647
